# Assay info: Pharmacokinetics of MB-905 in three pre-formulations in mice
# Format: in vivo
# Condition label: mouse, plasma, po, 3 mg/kg, 5% Tween80 + 95% PEG400, 3 mg/kg (p.o.)
Reported metric: AUC (ng·h/mL)
// return numeric value only (unit: ng·h/mL, not printed)

stdin: Given the compound c1coc(CNc2ncnc3[nH]cnc23)c1 , what is its reported AUC?
stdout: 153

---

Each entry below carries its reported EC90.
# System: SARS-COV-2
# Condition label: Severe acute respiratory syndrome coronavirus 2, Calu-3, 72 h, Calu-3 (MOI 0.5 72 h), daily treatment
// return numeric value only (unit: µM, not printed)

| Molecule | EC90 [µM] |
| --- | --- |
| c1coc(CNc2ncnc3[nH]cnc23)c1 | 2.1 |
| CC(C)OC(=O)[C@H](C)NP(=O)(OC[C@H]1O[C@@H](n2cnc3c(NCc4ccco4)ncnc32)[C@H](O)[C@@H]1O)Oc1ccccc1 (some centres unmarked) [MB-711, kinetin riboside monophosphoramidate] | 3.8 |
| CC(C)C(=O)OC[C@H]1O[C@@H](n2ccc(NO)nc2=O)[C@H](O)[C@@H]1O [MK-4482, N-4-hydroxycytidine-5′-isopropyl ester, reference compound] | 8.6 |
| CCC(CC)COC(=O)[C@H](C)N[P@](=O)(OC[C@H]1O[C@@](C#N)(c2ccc3c(N)ncnn23)[C@H](O)[C@@H]1O)Oc1ccccc1 [Remdesivir, reference compound] | 0.2 |

stdin: Given the molecule OC[C@H]1O[C@@H](n2cnc3c(NCc4ccco4)ncnc32)[C@H](O)[C@@H]1O [MB-801, kinetin riboside] , what is its reported EC90?
stdout: 3.7

---

# Assay info: Pharmacokinetics of MB-905 in three pre-formulations in mice
# Assay type: in vivo
# Condition label: CD1, mouse, plasma, po, 3 mg/kg, 5% Carboxymethylcellulose, 3 mg/kg (v.o.), read-out: Cmax
Reported metric: Cmax (ng/mL)
// return numeric value only (unit: ng/mL, not printed)

stdin: Given the compound c1coc(CNc2ncnc3[nH]cnc23)c1 , what is its reported Cmax?
stdout: 70.2

---

# Assay info: Pharmacokinetics of MB-905 in three pre-formulations in mice
# Assay type: in vivo
# Condition label: mouse, plasma, po, 300 mg/kg, 5% Carboxymethylcellulose, 300 mg/kg (p.o.)
Reported metric: AUC (ng·h/mL)
// return numeric value only (unit: ng·h/mL, not printed)

stdin: Given the compound c1coc(CNc2ncnc3[nH]cnc23)c1 , what is its reported AUC?
stdout: 14800

---

# Assay info: Pharmacokinetics of MB-905 in plasma of the rat
# Type: in vivo
# Condition label: both sexes, Sprague Dawley, rat, plasma, po, 10 mg/kg, 10 mg/kg (v.o.), read-out: Cmax
Reported metric: Cmax (ng/mL)
// return numeric value only (unit: ng/mL, not printed)

stdin: Given the molecule c1coc(CNc2ncnc3[nH]cnc23)c1 , what is its reported Cmax?
stdout: 545

---

# Assay info: Pharmacokinetics of MB-905 in three pre-formulations in mice
# Assay type: in vivo
# Condition label: CD1, mouse, plasma, po, 30 mg/kg, 5% Carboxymethylcellulose, 30 mg/kg (p.o.), read-out: Cmax
Reported metric: Cmax (ng/mL)
// return numeric value only (unit: ng/mL, not printed)

stdin: Given the compound c1coc(CNc2ncnc3[nH]cnc23)c1 [MB-905, kinetin] , what is its reported Cmax?
stdout: 504

---

# Assay info: Pharmacokinetics of MB-905 in three pre-formulations in mice
# Format: in vivo
# Condition label: CD1, mouse, plasma, po, 3 mg/kg, 5% ethanol, 30% Propylene Glycol, 45% PEG 400, 20% water, 3 mg/kg (v.o.)
Reported metric: Tmax (min)
// return numeric value only (unit: min, not printed)

stdin: Given the compound c1coc(CNc2ncnc3[nH]cnc23)c1 , what is its reported Tmax?
stdout: 15

---

# Tested on: SARS-COV-2
# Assay info: SARS-COV-2 viral RNA synthesis in HuH-7 cells (real time RT-PCR)
# Assay type: cell-based
# Condition label: Severe acute respiratory syndrome coronavirus 2; Huh-7 (MOI 0.1 48 h); read-out: EC50
Each entry below carries its reported pEC50.
Remember, pEC50 is on a log scale: it is -log10 of the molar concentration.

// solved cases for pEC50 follow
| Compound | pEC50 |
| --- | --- |
| c1coc(CNc2ncnc3[nH]cnc23)c1 | 7.00 |
| OC[C@H]1O[C@@H](n2cnc3c(NCc4ccco4)ncnc32)[C@H](O)[C@@H]1O [MB-801, kinetin riboside] | 7.00 |
| C/C(=C\CNc1ncnc2c1ncn2[C@@H]1O[C@H](CO)[C@@H](O)[C@H]1O)CO [MB-804, zeatin riboside] | 5.14 |

Let us move to another entry and its pEC50.
stdin: Given the compound CCC(CC)COC(=O)[C@H](C)N[P@](=O)(OC[C@H]1O[C@@](C#N)(c2ccc3c(N)ncnn23)[C@H](O)[C@@H]1O)Oc1ccccc1 [Remdesivir, reference compound] , what is its reported pEC50?
stdout: 8.22

---

# Assay info: Toxicokinetics in the 28-day study
# Format: in vivo, mice
# Condition label: male, CD1, mouse, in vivo, po, 80 mg/kg, male mice; 80 mg/kg; Day 0
Reported metric: AUC (ng·h/mL)
// return numeric value only (unit: ng·h/mL, not printed)

stdin: Given the compound c1coc(CNc2ncnc3[nH]cnc23)c1 , what is its reported AUC?
stdout: 1020

---

# System: Calu-3 cells
# Assay info: Cytotoxicity assay (XTT) in Calu-3 cells
# Type: cell-based, human
# Condition label: Calu-3, single moment treatment
Reported metric: CC50 (µM)
// return numeric value only (unit: µM, not printed)

stdin: Given the compound OC[C@H]1O[C@@H](n2cnc3c(NCc4ccco4)ncnc32)[C@H](O)[C@@H]1O [MB-801, kinetin riboside] , what is its reported CC50?
stdout: 550

---

# Assay info: Pharmacokinetics of MB-905 in plasma of the rat
# Assay type: in vivo
# Condition label: both sexes, Sprague Dawley, rat, plasma, po, 10 mg/kg, 10 mg/kg (v.o.)
Reported metric: half-life

stdin: Given the compound c1coc(CNc2ncnc3[nH]cnc23)c1 , what is its reported half-life?
stdout: 1.46 h

---

# Assay info: Pharmacokinetics of MB-905 in three pre-formulations in mice
# Assay type: in vivo
# Condition label: CD1, mouse, plasma, po, 30 mg/kg, 5% Tween80 + 95% PEG400, 30 mg/kg (p.o.), read-out: Cmax
Reported metric: Cmax (ng/mL)
// return numeric value only (unit: ng/mL, not printed)

stdin: Given the compound c1coc(CNc2ncnc3[nH]cnc23)c1 [MB-905, kinetin] , what is its reported Cmax?
stdout: 507

---

# Test system: SARS-COV-2
# Assay info: SARS-COV-2 viral RNA synthesis in HuH-7 cells (real time RT-PCR)
# Assay type: cell-based
# Condition label: Severe acute respiratory syndrome coronavirus 2, Huh-7, 48 h
Reported metric: pEC50
Remember, pEC50 is on a log scale: it is -log10 of the molar concentration.

stdin: Given the compound C/C(=C\CNc1ncnc2[nH]cnc12)CO , what is its reported pEC50?
stdout: 7.30

---

# Assay info: Toxicokinetics in the 28-day study
# Type: in vivo, mice
# Condition label: male, CD1, mouse, in vivo, po, 250 mg/kg, male mice; 250 mg/kg; Day 28
Reported metric: AUC (ng·h/mL)
// return numeric value only (unit: ng·h/mL, not printed)

stdin: Given the compound c1coc(CNc2ncnc3[nH]cnc23)c1 , what is its reported AUC?
stdout: 1130

---

# Assay info: Pharmacokinetics of MB-905 in three pre-formulations in mice
# Assay type: in vivo
# Condition label: mouse, plasma, po, 3 mg/kg, 5% Carboxymethylcellulose, 3 mg/kg (v.o.)
Reported metric: half-life
Please answer in the form of a number followed by its unit of measurement.

stdin: Given the compound c1coc(CNc2ncnc3[nH]cnc23)c1 [MB-905, kinetin] , what is its reported half-life?
stdout: 2.18 h

---

# Assay info: Toxicokinetics in the 28-day study
# Format: in vivo, mice
# Condition label: female, CD1, mouse, in vivo, po, 80 mg/kg, female mice; 80 mg/kg; Day 28
Reported metric: half-life (h)
// return numeric value only (unit: h, not printed)

stdin: Given the molecule c1coc(CNc2ncnc3[nH]cnc23)c1 [MB-905, kinetin] , what is its reported half-life?
stdout: 1.09

---

# Assay info: Pharmacokinetics of MB-905 in three pre-formulations in mice
# Assay type: in vivo
# Condition label: CD1, mouse, plasma, po, 300 mg/kg, 5% Carboxymethylcellulose, 300 mg/kg (p.o.), read-out: Cmax
Reported metric: Cmax (µg/mL)
// return numeric value only (unit: µg/mL, not printed)

stdin: Given the compound c1coc(CNc2ncnc3[nH]cnc23)c1 [MB-905, kinetin] , what is its reported Cmax?
stdout: 1.02

---

# Assay info: Toxicokinetics in the 28-day study
# Assay type: in vivo, mice
# Condition label: male, CD1, mouse, in vivo, po, 80 mg/kg, male mice; 80 mg/kg; Day 0
Reported metric: Cmax (ng/mL)
// return numeric value only (unit: ng/mL, not printed)

stdin: Given the molecule c1coc(CNc2ncnc3[nH]cnc23)c1 , what is its reported Cmax?
stdout: 598
